- Test Protocol: Static permeation study without lung cells (control, porous membrane only)
- Format: in vitro ADME
- Condition Parameters: not told, control without lung cell barrier (porous membrane 0.4 µm, 0.6 cm^2), 100 µM apical, model parameter estimate, read-out: P12, apparent permeability from the apical to the basolateral compartment and vice versa (converted)
Counter-ions that a name gives are not always drawn.
Outcome Measure: Papp A→B at 72 h, 100 µM (×10⁻⁶ cm/s)
The answer is to be given in ×10⁻⁶ cm/s; state only the numeric part.

Compound	Measurement Unit	Data Value
Cn1c(=O)c2c(ncn2C)n(C)c1=O	×10⁻⁶ cm/s	54.5

Please find the next compound below.
Query string: Please report Papp A→B at 72 h, 100 µM for the following compound: O=C(O)Cc1ccccc1Nc1c(Cl)cccc1Cl [diclofenac, diclofenac sodium salt]
Result string: 41.8
